molecular target: FGFR3 (UniProt P22607); experiment: phosphorylation enrichment, bacterial display (enrichment ratio); higher = better substrate or ligand; peptides without Tyr show the background;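 note: 11-residue human phosphosite peptides and single-mutation variants displayed on the E. coli surface, counted by deep sequencing, each peptide's frequency after selection divided by its frequency in the unselected input library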;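 note: frequency after pTyr selection over input frequency; kinase dosed for 20-30% of maximal phosphorylation in three min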
Sequence (P22607 whole entry, looked up): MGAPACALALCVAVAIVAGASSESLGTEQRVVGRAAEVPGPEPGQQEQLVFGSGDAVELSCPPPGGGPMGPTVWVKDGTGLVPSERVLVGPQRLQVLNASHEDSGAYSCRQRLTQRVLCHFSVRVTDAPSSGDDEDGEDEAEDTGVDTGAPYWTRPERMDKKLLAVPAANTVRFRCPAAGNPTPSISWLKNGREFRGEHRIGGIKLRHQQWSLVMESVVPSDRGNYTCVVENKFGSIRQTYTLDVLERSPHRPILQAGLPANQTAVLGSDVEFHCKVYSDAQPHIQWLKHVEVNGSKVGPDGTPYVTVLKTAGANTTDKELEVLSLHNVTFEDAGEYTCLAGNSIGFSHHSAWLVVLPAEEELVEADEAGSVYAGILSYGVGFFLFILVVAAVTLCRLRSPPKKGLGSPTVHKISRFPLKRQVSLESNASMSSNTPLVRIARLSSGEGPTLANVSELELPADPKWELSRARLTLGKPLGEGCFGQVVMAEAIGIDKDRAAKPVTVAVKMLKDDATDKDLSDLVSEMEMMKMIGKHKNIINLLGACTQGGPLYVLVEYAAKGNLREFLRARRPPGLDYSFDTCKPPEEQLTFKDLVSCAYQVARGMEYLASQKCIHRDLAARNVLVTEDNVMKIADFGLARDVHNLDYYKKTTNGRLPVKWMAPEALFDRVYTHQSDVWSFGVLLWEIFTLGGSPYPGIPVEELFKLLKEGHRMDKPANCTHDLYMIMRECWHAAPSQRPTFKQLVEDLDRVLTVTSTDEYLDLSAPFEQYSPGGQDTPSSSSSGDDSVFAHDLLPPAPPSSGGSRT
phosphorylation enrichment below 0.6 gives no; phosphorylation enrichment at or above it gives yes.

sequence_data="VFPIDYYFPPQ [AR_Y552_L548F]" tested_on="FGFR3 (UniProt P22607)" class_name=yes
sequence_data="VTSLKYSTSPF [BRIP1_Y916_YF]" tested_on="FGFR3 (UniProt P22607)" class_name=yes
sequence_data="LITTLYISFLG [KCNQ1_Y267_G269S]" tested_on="FGFR3 (UniProt P22607)" class_name=yes
sequence_data="YPPDGYSRHCE [CTNND1_Y213_Y217C]" tested_on="FGFR3 (UniProt P22607)" class_name=no
sequence_data="DLVHPYVHKIL [SF3B1_Y570_R568H]" tested_on="FGFR3 (UniProt P22607)" class_name=no
sequence_data="TLMNAYSSRCH [KIF11_Y231_S235C]" tested_on="FGFR3 (UniProt P22607)" class_name=yes
sequence_data="DMDATYRPMYS [JUP_Y701]" tested_on="FGFR3 (UniProt P22607)" class_name=yes
sequence_data="LIGRRYDDPEV [HSPA9_Y128]" tested_on="FGFR3 (UniProt P22607)" class_name=yes
sequence_data="PKEQKYSFLQD [GH1_Y68_N73D]" tested_on="FGFR3 (UniProt P22607)" class_name=no
sequence_data="SFHSSYSEIKD [DCLRE1C_Y322]" tested_on="FGFR3 (UniProt P22607)" class_name=yes
sequence_data="WKEREYEVVRD [CPS1_Y634_I632R]" tested_on="FGFR3 (UniProt P22607)" class_name=yes
sequence_data="ILGTFYETGSI [PAX2_Y73_R71T_YF]" tested_on="FGFR3 (UniProt P22607)" class_name=no
sequence_data="ARMTNYGLPRF [TSPAN12_Y138_YF]" tested_on="FGFR3 (UniProt P22607)" class_name=no
sequence_data="RNAAEYLLSSG [ABL1_Y139]" tested_on="FGFR3 (UniProt P22607)" class_name=no
sequence_data="ADSLRYIFPKL [EIF2B3_Y92_YF]" tested_on="FGFR3 (UniProt P22607)" class_name=no
sequence_data="AFLEDYFTSTK [SRC_Y522_E527K]" tested_on="FGFR3 (UniProt P22607)" class_name=yes
